Values compiled from the supplement of paper PMC11865577.

# Test system: TO-3-N3-2 (biotin conjugate)
# run description: pull-down binding Z-score (relative to library population); higher = stronger binding
# protocol conditions: RNA library: Library-2

chain: CGUUUAGUAGAUGAUUGUGCAUUGUUUCAAAAUG [hsa-mir-224]
pull-down binding Z-score: -0.358
--
chain: UGACCAGUCUUCUUACAUCGUUGAUAGUGUUACAGUGAAGAAUGGUUCCAUCCAUCUUUACUUUGAUAAAGCUGGUCA
pull-down binding Z-score: -0.33
--
chain: AGGGCUGGGAUUACUAAAGCCCU [hsa-mir-1266]
pull-down binding Z-score: -0.105
--
chain: UUUGCCAUUAAAAGUAACGACAAA [hsa-mir-548a-1]
pull-down binding Z-score: -0.389
--
chain: ACCCUGCAGCCCCAGCUGGAGGAUGAGGAGAUGCUGGGCUUGGGU [hsa-mir-4313]
pull-down binding Z-score: 1.45
--
chain: UGGGCCAAG [hsa-mir-3620]
pull-down binding Z-score: 0.193
--
chain: CAGAGAUGAAAUUGGGACUCCUCU [hsa-mir-7157]
pull-down binding Z-score: 0.343
--
chain: AGUUCCUGAUUAAGAAAUGGAAUU [hsa-mir-4699]
pull-down binding Z-score: -0.107
--
chain: GGACCAGGAACUAAUCAGACAAGGAACUGAUUACAAACAUUGGCC [DMSMaPseq_invitro_SARS-CoV-2_Motif_522]
pull-down binding Z-score: 0.134
--
chain: GUUGUAGACGGUUGUAAUUCAUCAACUUGUAUGAUGUGUUACAAACGUAAUAGAGC [SHAPE_invivo_SARS-CoV-2_Motif_153]
pull-down binding Z-score: -0.153
--
chain: UGUCUUGUAGCCAGGAUAUUGUUUUAAAGAA [hsa-mir-4668]
pull-down binding Z-score: 0.00983
--
chain: AUGGUCUCUAUAUUUAUGAUGAUUAA [hsa-mir-889]
pull-down binding Z-score: 0.373
--
chain: GGCACAAAUGCAACACUGCAUUACCAUGCGGUUGUGCC [3-way model-1_rpoH]
pull-down binding Z-score: -0.624
--
chain: UCCAGUGUGGCUCGGAGGCUGGA [hsa-mir-139]
pull-down binding Z-score: 0.381
--
chain: UGUGGUGGGUGGUGGCCUGCGGUGAGCAGGGCCCUCA [hsa-mir-1228]
pull-down binding Z-score: 1.08
--
chain: CCGUUUAAAAAGGCAUCUCCAAG [hsa-mir-608]
pull-down binding Z-score: 0.433
--
chain: CGGAUUCUGAAAGAAGAAUCCG [IAV_invivo_NS1_NEP_8_Motif_5+IAV_invivo_NS1_NEP_8_Motif_5]
pull-down binding Z-score: -0.255
--
chain: GAUUCAGAUCUUAAUGACUUUGUC [SHAPE_invivo_SARS-CoV-2_Motif_393]
pull-down binding Z-score: -0.439
--
chain: AUCUGAUGUUGAAUACUCUUUAAGU [hsa-mir-1245a]
pull-down binding Z-score: -0.281
--
chain: GGCUGGCCCCCUGCUUCGUGCCCAUCC [hsa-mir-937]
pull-down binding Z-score: 0.127

====

# Test system: TO-N3 (biotin conjugate)
# run description: pull-down binding Z-score (relative to library population); higher = stronger binding
# protocol conditions: RNA library: Library-2

chain: GCGCUGCCAGAAACUGGCUGAGCGC [bulge-UG]
target desc: TO-N3 (biotin conjugate)
pull-down binding Z-score: 0.392
--
chain: AGUUACACAGCUCACGAGUGCCU [hsa-mir-370]
target desc: TO-N3 (biotin conjugate)
pull-down binding Z-score: 0.113
--
chain: GUUGGAUAAUGAUGCACUCAACAACAUUAUCAAC
target desc: TO-N3 (biotin conjugate)
pull-down binding Z-score: -1.35
--
chain: UGAGCAUUCUAGCAGCAGUUUGAUGAUCA [hsa-mir-6516]
target desc: TO-N3 (biotin conjugate)
pull-down binding Z-score: -0.394
--
chain: AUGCCCCAGGUGACGUGCUGGGCU [hsa-mir-4526]
target desc: TO-N3 (biotin conjugate)
pull-down binding Z-score: 0.495
--
chain: UCUCUCUCAUUUUGUUAACUUAGACAACCUGAGAGCUAAUAACACUAAAGGUUCAUUGCCUAUUAAUGUUAUAGUUUUUGAUGGUAAAUCAAAAUGUGAAGA [DMSMaPseq_invitro_SARS-CoV-2_Motif_146]
target desc: TO-N3 (biotin conjugate)
pull-down binding Z-score: -0.723
--
chain: GUUCGUGUUGUUUUAGAUUUCAUCUAAACGAAC
target desc: TO-N3 (biotin conjugate)
pull-down binding Z-score: -1.12
--
chain: UUAUCUGUCACCAGUCAGAUAACUGUCACCAGUCAGUUAA [hsa-mir-4764]
target desc: TO-N3 (biotin conjugate)
pull-down binding Z-score: -0.684
--
chain: AGCAUCUGAAUGGGUACAGUUGUUGU [hsa-mir-6818]
target desc: TO-N3 (biotin conjugate)
pull-down binding Z-score: 0.0834
--
chain: CUGCUUUUAAAGGUAAUGGCAA [hsa-mir-548ag-1]
target desc: TO-N3 (biotin conjugate)
pull-down binding Z-score: 0.193
--
chain: UAAGUGUCCUAGCACUUA [hsa-mir-374b]
target desc: TO-N3 (biotin conjugate)
pull-down binding Z-score: -0.0395
--
chain: GGGUUCAAUAGAUUGCUUUAGCUGAAGCAAGCCU [hsa-mir-8054]
target desc: TO-N3 (biotin conjugate)
pull-down binding Z-score: 0.00977
--
chain: AUGGUGUUUGUGAGUUGAUUGACAUCGU [hsa-mir-6506]
target desc: TO-N3 (biotin conjugate)
pull-down binding Z-score: -0.408
--
chain: GUGAGGCAGGGAGCUGAGCUCAC [hsa-mir-3622a]
target desc: TO-N3 (biotin conjugate)
pull-down binding Z-score: 0.698
--
chain: GUUACUAAUCUAACUAAUUGUAAC [hsa-mir-582]
target desc: TO-N3 (biotin conjugate)
pull-down binding Z-score: 0.00217
--
chain: GUGUUAUAACAC
target desc: TO-N3 (biotin conjugate)
pull-down binding Z-score: -0.404
--
chain: CUUUGAUAAAGCUGGUCAAAAGACUUAUGAAAG
target desc: TO-N3 (biotin conjugate)
pull-down binding Z-score: -0.947
--
chain: GUCCCAAUACAUGUGGGCC [hsa-mir-586]
target desc: TO-N3 (biotin conjugate)
pull-down binding Z-score: -0.22
--
chain: CCACUUGGCUAUGUAACACAUGGCUUAAAUUUGG [DMSMaPseq_invitro_SARS-CoV-2_Motif_85]
target desc: TO-N3 (biotin conjugate)
pull-down binding Z-score: 0.127
--
chain: GUGAGCUGGAAAUGGGGUGCUAC [hsa-mir-598]
target desc: TO-N3 (biotin conjugate)
pull-down binding Z-score: 1.5
--
chain: GGUGUUGUUGGAGAAGGUUCCGAAGGUCUUAAUGACAACCUUCUUGAAAUACUCC
target desc: TO-N3 (biotin conjugate)
pull-down binding Z-score: 0.261
--
chain: GGCCAUCUGCUAUUCGUCCACCAACCUGACUUGAUCC [hsa-mir-7111]
target desc: TO-N3 (biotin conjugate)
pull-down binding Z-score: 0.256
